- Test system: HCT-116 colon
- Assay info: NCI tumour cell line growth inhibition, 48 h
Assay readout: TGI (µM)
Dear colleague, please return just the value in µM, with no unit written.

// worked examples, TGI included
COc1ccc2c3c(c(OCCCN(C)C)nc2c1)-c1ccc(Cl)cc1C3=O :: 3.52
CC(Cc1ccc(O)c(O)c1)C(C)Cc1ccc(O)c(O)c1 (stereo unspecified) :: 34.2

Kindly review the next compound as well.
Consider the compound shown here: S=C(Nc1ccc(Br)cn1)NC12CC3CC(CC(C3)C1)C2 What is its recorded TGI? 35.3

---

- Tested on: K-562 leukemia
- Assay info: NCI tumour cell line growth inhibition, 48 h
Assay readout: TGI

Solved entries:
C[C@@H]1OC(=O)C[C@H]2CC(=O)N(CCc3cn(S(=O)(=O)C(F)(F)F)c4ccccc34)C[C@@H]21 :: > 100 µM
CCCCCCCSCC(O)COC(c1ccccc1)(c1ccccc1)c1ccccc1 (stereo not drawn) :: > 100 µM

What reported TGI corresponds to CCC1(CN(C)C)CC/C(=C\c2ccc3c(c2)OCO3)C1=O (stereo not drawn) on K-562 leukemia? > 100 µM
